Data credit: paper PMC7065722

# Tested On: LmFH-2 (cytosolic class I fumarate hydratase) (Leishmania major)
# Sequence (E9AE57 1-568): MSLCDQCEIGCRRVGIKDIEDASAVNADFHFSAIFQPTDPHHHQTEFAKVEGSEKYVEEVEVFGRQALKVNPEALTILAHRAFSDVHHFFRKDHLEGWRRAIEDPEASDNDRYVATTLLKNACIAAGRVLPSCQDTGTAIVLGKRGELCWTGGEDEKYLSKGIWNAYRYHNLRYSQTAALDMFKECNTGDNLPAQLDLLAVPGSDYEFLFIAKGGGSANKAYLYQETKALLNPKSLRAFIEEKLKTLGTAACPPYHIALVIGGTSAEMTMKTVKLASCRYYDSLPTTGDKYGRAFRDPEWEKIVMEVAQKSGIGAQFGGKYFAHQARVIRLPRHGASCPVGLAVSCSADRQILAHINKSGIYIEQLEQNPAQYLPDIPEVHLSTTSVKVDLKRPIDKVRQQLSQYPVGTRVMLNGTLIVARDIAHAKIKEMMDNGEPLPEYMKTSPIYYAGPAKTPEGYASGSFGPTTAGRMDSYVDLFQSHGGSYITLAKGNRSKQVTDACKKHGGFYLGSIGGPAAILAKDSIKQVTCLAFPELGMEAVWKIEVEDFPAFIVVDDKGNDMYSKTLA
Readout Label: IC50
Write down the value, and be sure its unit follows.

Record O=C(O)CCC(=O)O [succinate] ; system LmFH-2 (cytosolic class I fumarate hydratase) (Leishmania major); IC50 = 34.2 mM
